system: HCT-116 colon; test: NCI tumour cell line growth inhibition, 48 h
Each record here notes measured TGI.
Express your answer in µM, writing the number without its unit.

Previously resolved entries follow.
CC(C)(C)C(=O)c1c(C(F)(F)F)n([O-])c2ccccc2[n+]1=O : 1.59
CCC[CH2][Sn]([CH2]CCC)([CH2]CCC)[O]c1ccc(Cl)cc1Cl : 0.231
Cc1nc(SCC(=O)Nc2nc(-c3ccc(Cl)cc3)cs2)n(Nc2ccccc2)c1C : 4.62
COc1cc(C2c3cc4c(cc3[C@@H](Nc3ccccc3)C3COC[C@H]23)OCO4)cc(OC)c1O (some centres undefined) : 19.8
Oc1ccc(-c2nc(-c3cccnc3)c(-c3ccc(Cl)cc3)[nH]2)cc1O : 26.7
O=c1[nH]c(=O)n(C2OC(COP(=O)(O)OP(=O)(O)OC3OC(CO)C(O)C(O)C3O)C(O)C2O)cc1F (centres undefined) : 1.23

Now for the compound whose TGI we want.
Req: Please list TGI recorded for the compound CCCN1C(=O)CC(C)N(Cc2ccccc2Cl)C1=S (centres undefined)
Resp: 79.4

###

system: OVCAR-8 ovarian; test: NCI tumour cell line growth inhibition, 48 h
property: TGI

Previously resolved entries follow.
C=C1C(=O)O[C@H]2C[C@@H]1CC/C(C)=C/CC/C(C)=C/CC[C@H]2C : 39.3 µM
CN(C)CCCOc1ccc(-c2ccc3ncc4c(c3c2)n(C2CCOCC2)c(=O)n4C)cn1 : 17.2 µM
CCCSc1ccc2[nH]c(N3C(=O)/C(=C/c4ccco4)N=C3c3ccccc3)cc2c1 : > 50 µM

Req: Please list TGI recorded for the compound COc1ccc(S(=O)(=O)Nc2ccccc2C(=O)O)cc1
Resp: > 100 µM

Req: Please list TGI recorded for the compound Cc1c(Cl)c2ccccc2n1S(=O)(=O)c1ccccc1
Resp: > 100 µM

Req: Please list TGI recorded for the compound COc1ccc2c(c1)C(=O)c1c-2n(CCCN=[N+]=[N-])c(=O)c2cc(OC)c(OC)cc12
Resp: > 100 µM

Req: Please list TGI recorded for the compound COc1cc(/C=C2\C(=O)Nc3cc(C)c(O)cc32)cc(OC)c1OC
Resp: > 67.3 µM

Req: Please list TGI recorded for the compound CC1CCC2(CC1)NN=c1s/c(=C\c3ccc(O)cc3)c(=O)n1N2 (stereo not given)
Resp: > 100 µM

Req: Please list TGI recorded for the compound C[C@]12CC[C@H]3[C@@H](CC=C4C[C@@H](N5CCCC5)CC[C@@]43C)[C@@H]1C[C@H](N1CCOCC1)[C@@H]2O
Resp: > 100 µM

Req: Please list TGI recorded for the compound OCc1ccc(-c2ccc(-c3ccc(CO)o3)[se]2)o1
Resp: > 100 µM

###

test system: MCF7 breast; assay: NCI tumour cell line growth inhibition, 48 h
property: TGI

Previously resolved entries follow.
N[C@H](C(=O)O)[C@H]1ON=C(Cl)[C@@H]1O : > 550 µM
CO[C@H]1/C=C/O[C@@]2(C)Oc3c(C)c(O)c4c(c3C2=O)C(=O)C(/C=N/N(c2ccccc2)c2ccccc2)=C(NC(=O)/C(C)=C\C=C\[C@H](C)[C@H](O)[C@@H](C)[C@@H](O)[C@@H](C)[C@H](OC(C)=O)[C@@H]1C)C4=O : 4.23 µM
CNC(=O)c1ccc(N2CCN(Cc3ccc4nc(C)c(=O)[nH]c4c3F)CC2)c(F)n1 : > 100 µM
C=C1C(=O)O[C@H]2[C@H]1CC/C(COC(=O)CSCCSCC(=O)OC/C1=C/CC[C@@]3(C)O[C@H]3[C@H]3OC(=O)C(=C)[C@@H]3CC1)=C\CC[C@@]1(C)O[C@@H]21 : 2.66 µM

Req: Please list TGI recorded for the molecule Cc1ccc(-c2csc(/N=C3\C(=O)Nc4ccccc43)n2)cc1
Resp: 3.11 µM

Req: Please list TGI recorded for the molecule O=C1CCC2(CC1CC(Sc1ccccc1)Sc1ccccc1)OCCO2 (configuration not stated)
Resp: > 100 µM

Req: Please list TGI recorded for the molecule O=C(CO[N+](=O)[O-])Nc1ccc(C(=O)/C=C/c2ccc(Cl)cc2)cc1
Resp: 6.44 µM

Req: Please list TGI recorded for the molecule O=S(=O)(Nc1ccccc1Cl)c1ccc(-c2cnc(C3CC3)o2)cc1
Resp: > 100 µM

###

Each record here notes measured TGI.
system: SK-MEL-5 melanoma; experiment: NCI tumour cell line growth inhibition, 48 h

Previously resolved entries follow.
OCc1ccc(-c2ccc(-c3ccc(CO)o3)[se]2)o1 : > 100 µM
CNC(=O)c1ccc(N2CCN(Cc3ccc4nc(C)c(=O)[nH]c4c3F)CC2)c(F)n1 : > 100 µM
CC(=O)[O][Ga]([Cl])[O]C(C)=O : > 100 µM
C[Si](C)(OCCS(=O)(=O)O)C1(Cc2cccc3ccccc23)S(=O)(=O)OCCOS1(=O)=O : 31.1 µM

Now for the molecule whose TGI we want.
Req: Please list TGI recorded for the molecule O=C(CP(=O)(O)O)NC(CC(=O)OCc1ccccc1)C(=O)OCc1ccccc1 (stereo not given)
Resp: > 100 µM

###

system: EKVX NSCLC; assay: NCI tumour cell line growth inhibition, 48 h
Each record here notes measured TGI.

Previously resolved entries follow.
COc1ccc(S(=O)(=O)N2CC(C)(C)CN(S(=O)(=O)c3ccc(OC)cc3)C2C(=O)NO)cc1 : > 20 µM
CC(C)=CCc1c(OC(=O)c2c(C)cc(O)cc2O)cc(CO)c(CO)c1O : > 100 µM
COC(=O)c1c2c(c[n+]([O-])c1C)C(=O)C=CC2=O : 4.25 µM
COc1cc(C2c3cc4c(cc3[C@@H](Nc3ccccc3)C3COC[C@H]23)OCO4)cc(OC)c1O (stereo not given in full) : > 100 µM

Now for the compound whose TGI we want.
Req: Write down measured TGI (EKVX NSCLC) for this compound. O=S(=O)(Nc1ccccc1Cl)c1ccc(-c2cnc(C3CC3)o2)cc1
Resp: > 89.1 µM

###

tested on: MDA-MB-231 breast; test: NCI tumour cell line growth inhibition, 48 h; in the data active = GI50 below about 0.43 µM; inactive = the rest
Outcome (select one): T (active), F (inactive)

Cc1nn(-c2nc3ccccc3[nH]2)c(N)c1-c1ccc(Cl)cc1 : F

Req: Assay outcome for C=C1C(=O)O[C@H]2[C@H]1CC/C(COC(=O)CSCCSCC(=O)OC/C1=C/CC[C@@]3(C)O[C@H]3[C@H]3OC(=O)C(=C)[C@@H]3CC1)=C\CC[C@@]1(C)O[C@@H]21 : what was it?
Resp: F

Req: Assay outcome for CC[N+](CC)=c1sc2c(s1)C(c1ccc(Cl)cc1)Oc1ccc(Cl)cc1-2 (stereo unspecified) : what was it?
Resp: F

Req: Assay outcome for CCC[CH2][Sn]([CH2]CCC)([CH2]CCC)[O]c1ccc(Cl)cc1Cl : what was it?
Resp: T

Req: Assay outcome for O=S(=O)(Nc1ccccc1Cl)c1ccc(-c2cnc(C3CC3)o2)cc1 : what was it?
Resp: F

###

test system: NCI-H23 lung; test: NCI tumour cell line growth inhibition, 48 h
property: TGI (µM)
Express your answer in µM, writing the number without its unit.

Previously resolved entries follow.
COc1cc(NC(N)=NCCC(C)(C)Oc2ccc(C(F)(F)F)cc2)ncc1C#N : 2.81
CCCN1C(=O)CC(C)N(Cc2ccccc2Cl)C1=S (stereo unspecified) : 56.7
Nc1ccc(C2=NN(c3ccccc3)C(c3ccc(Cl)cc3)C2)cc1 (stereo unspecified) : 5.09

Req: Write down measured TGI (NCI-H23 lung) for this molecule. C#CCOc1cccc(-c2ncnc3cc(NC(=O)CCl)ccc23)c1
Resp: 3.14

Req: Write down measured TGI (NCI-H23 lung) for this molecule. CCC[CH2][Sn]([CH2]CCC)([CH2]CCC)[O]c1ccc(Cl)cc1Cl
Resp: 0.321

Req: Write down measured TGI (NCI-H23 lung) for this molecule. O=C(c1ccccc1)N1CCN(C(=S)N(C(=O)c2ccccc2)c2ccccc2)C1=S
Resp: 11.6

Req: Write down measured TGI (NCI-H23 lung) for this molecule. COC(=O)c1c2c(c[n+]([O-])c1C)C(=O)C=CC2=O
Resp: 4.26

Req: Write down measured TGI (NCI-H23 lung) for this molecule. CN(C)c1ccc(C(=C(c2ccc(N(C)C)cc2)c2ccc(N(C)C)cc2)c2ccc(N(C)C)cc2)cc1
Resp: 33.6

Req: Write down measured TGI (NCI-H23 lung) for this molecule. CC(C)CC(NC(=O)c1cccc(O)c1O)C(=O)NCc1cc(CNC(=O)C(CC(C)C)NC(=O)c2cccc(O)c2O)cc(CNC(=O)C(CC(C)C)NC(=O)c2cccc(O)c2O)c1 (stereo unspecified)
Resp: 36.1

###

tested on: MDA-MB-435
Outcome (select one): 1 for active, -1 for inactive

COc1ccc(S(=O)(=O)N2CC(C)(C)CN(S(=O)(=O)c3ccc(OC)cc3)C2C(=O)NO)cc1 : -1
COc1ccc(-c2cn[nH]c2-c2cc(OC)c3c(c2)OCO3)cc1 : 1
CCC[CH2][Sn]([CH2]CCC)([CH2]CCC)[O]c1ccc(Cl)cc1Cl : 1
Cc1nc(SCC(=O)Nc2nc(-c3ccc(Cl)cc3)cs2)n(Nc2ccccc2)c1C : -1
CCCNNC(=O)/C=C/c1ccc(CNCCc2c(C)[nH]c3ccccc23)cc1 : 1
Cn1cc(C2=C(c3cn(CCCCN)c4ccccc34)C(=O)NC2=O)c2ccccc21 : -1
COc1cc(OC)cc(N(CCNC(C)C)c2ccc3ncc(-c4cnn(C)c4)nc3c2)c1 : -1
C=C1C(=O)O[C@H]2[C@H]1CC/C(COC(=O)CSCCSCC(=O)OC/C1=C/CC[C@@]3(C)O[C@H]3[C@H]3OC(=O)C(=C)[C@@H]3CC1)=C\CC[C@@]1(C)O[C@@H]21 : -1
CCOC(=O)N1CCN(c2nc(Nc3cc(C)[nH]n3)c3ccccc3n2)CC1 : -1
S=C(Nc1ccc(Br)cc1)Nc1ccc(Br)cc1 : -1

# ---- query molecule ----
Req: Assay outcome for Cc1ccc(-c2csc(/N=C3\C(=O)Nc4ccccc43)n2)cc1 : what was it?
Resp: -1
